# Test system: LNCaP tumor xenograft-bearing CB17-SCID mice
# assay.summary: Biodistribution in LNCaP tumor xenograft-bearing CB17-SCID mice
# measurement.parameters: 24 h p.i.
quantity.name: Biodistribution Pancreas

Previously resolved entries follow.
Returns the measured Biodistribution Pancreas for the input compound. Input: CC(C)(C)[Si](F)(c1ccc(C(=O)NCC(NC(=O)CN2CCN(CC(=O)[O-])CCN(CC(=O)[O-])CCN(CC(=O)[O-])CC2)C(=O)NC(CCCCNC(=O)CCC(=O)NCCCC(NC(=O)CCC(NC(=O)NC(CCc2nnn[nH]2)C(=O)O)C(=O)O)C(=O)O)C(=O)O)cc1)C(C)(C)C.[177Lu+3] (stereo not shown) [[^177Lu]Lu-11, [^177Lu]Lu-Tetrazole Derivative 11]
0.02 ± 0.00 % ID/g

Returns the measured Biodistribution Pancreas for the input compound. Input: CSCC[C@H](NC(=O)CC[C@H](NC(=O)N[C@@H](CCC(=O)N[C@H](CCCNC(=O)CCC(=O)NCCCC[C@@H](NC(=O)[C@@H](CNC(=O)c1ccc([Si](F)(C(C)(C)C)C(C)(C)C)cc1)NC(=O)CN1CCN(CC(=O)[O-])CCN(CC(=O)[O-])CCN(CC(=O)[O-])CC1)C(=O)O)C(=O)O)C(=O)O)C(=O)O)C(=O)O.[177Lu+3] [[^177Lu]Lu-5, [^177Lu]Lu-Proinhibitor I]
0.01 ± 0.00 % ID/g

Returns the measured Biodistribution Pancreas for the input compound. Input: CCCCCC[C@H](NC(=O)[C@H](CCC(=O)O)NC(=O)N[C@@H](CCC(=O)N[C@H](CCCNC(=O)CCC(=O)NCCCC[C@@H](NC(=O)[C@@H](CNC(=O)c1ccc([Si](F)(C(C)(C)C)C(C)(C)C)cc1)NC(=O)CN1CCN(CC(=O)[O-])CCN(CC(=O)[O-])CCN(CC(=O)[O-])CC1)C(=O)O)C(=O)O)C(=O)O)C(=O)O.[177Lu+3] [[^177Lu]Lu-7, [^177Lu]Lu-Proinhibitor III]
0.02 ± 0.00 % ID/g

***
Returns the measured Biodistribution Pancreas for the input compound. Input: CCCCCC[C@H](NC(=O)CC[C@H](NC(=O)N[C@@H](CCC(=O)N[C@H](CCCNC(=O)CCC(=O)NCCCC[C@@H](NC(=O)[C@@H](CNC(=O)c1ccc([Si](F)(C(C)(C)C)C(C)(C)C)cc1)NC(=O)CN1CCN(CC(=O)[O-])CCN(CC(=O)[O-])CCN(CC(=O)[O-])CC1)C(=O)O)C(=O)O)C(=O)O)C(=O)O)C(=O)O.[177Lu+3] [[^177Lu]Lu-6, [^177Lu]Lu-Proinhibitor II]
0.03 ± 0.01 % ID/g

Data credit: patent US20250375544A1
